# Study Target: Recombinant human FGFR2 (Homo sapiens)
# Sequence (P21802 22-821): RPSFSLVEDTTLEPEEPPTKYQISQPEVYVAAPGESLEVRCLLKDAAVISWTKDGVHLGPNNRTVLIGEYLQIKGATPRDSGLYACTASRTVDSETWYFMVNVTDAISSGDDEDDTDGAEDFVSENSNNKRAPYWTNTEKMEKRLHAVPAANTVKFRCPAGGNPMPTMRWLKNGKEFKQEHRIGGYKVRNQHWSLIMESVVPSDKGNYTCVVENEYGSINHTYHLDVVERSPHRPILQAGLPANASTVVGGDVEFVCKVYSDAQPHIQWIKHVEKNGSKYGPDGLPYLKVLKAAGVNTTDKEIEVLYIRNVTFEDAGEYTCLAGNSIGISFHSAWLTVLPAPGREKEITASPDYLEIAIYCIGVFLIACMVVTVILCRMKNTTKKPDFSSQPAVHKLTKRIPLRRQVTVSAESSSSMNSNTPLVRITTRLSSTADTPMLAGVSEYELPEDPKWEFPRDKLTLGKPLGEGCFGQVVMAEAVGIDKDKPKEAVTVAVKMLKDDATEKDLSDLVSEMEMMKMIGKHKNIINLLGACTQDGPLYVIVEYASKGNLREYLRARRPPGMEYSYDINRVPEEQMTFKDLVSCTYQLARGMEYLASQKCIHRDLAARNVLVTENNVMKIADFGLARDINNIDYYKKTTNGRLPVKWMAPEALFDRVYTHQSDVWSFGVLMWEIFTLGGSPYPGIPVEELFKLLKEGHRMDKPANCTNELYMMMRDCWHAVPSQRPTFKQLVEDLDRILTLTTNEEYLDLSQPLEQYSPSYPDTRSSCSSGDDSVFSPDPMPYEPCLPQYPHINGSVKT
# Assay Method Text: Transcreener Kinase Assay of FGFR2
# Format: biochemical
# Condition Notes: read-out: FGFR2 (FP) IC50
Observable: IC50 (nM)
Report only the number, with the unit nM understood.

Substance Smiles | IC50, nM
CNC(=O)c1cc(CCc2cnc(Nc3ccc4c(C)n(C)nc4c3)nc2)c(F)c(OC)c1 | 5

## Input Please respond with reported IC50 (system Recombinant human FGFR2 (Homo sapiens)) for CNC(=O)c1cc(CCc2cnc(Nc3ccc4nnnn4c3)nc2)c(F)c(OC)c1 .
## Output 44

## Input Please respond with reported IC50 (system Recombinant human FGFR2 (Homo sapiens)) for CNC(=O)c1cc(COc2cnc(Nc3ccc(N4C[C@@H](C)N[C@@H](C)C4)c(C)c3)nc2)c(Cl)c(OC)c1 .
## Output 6

Hey, just so you know, these numbers are from patent US20160052926A1.
